Hey, just so you know, these numbers are from patent US20240272170A1.

- ASSAYED_SYSTEM: T1, KA peptide (Octet assay of PS621 variants)
- T1 construct: XAKLDEESILKQK with X = K
- T1 peptide: KAKLDEESILKQK
- TEST_METHOD_NOTES: Octet (BLI), 30 C
QUANTITY_MEASURED: Octet response

# BINDER, VALUE_MEASURED
measured = [
    ("PS1117 (designed binder, Variant of PS621) MHSKFSHAGRICGAKFKVGEPIYRCKECSFDDTCVLCVNCFNPKDHLGHHVYTTICTEFNNGICDCGDKEAWNHTLFCKAEEG", 3.5),
    ("PS1111 (designed binder, Variant of PS621) MHSKFSHAGRICGAKFKVGEPIYRCKECSFDDTCVLCVNCFNPKDHTGHHVYTTICTEFNNGICDCGDKSAWNHTLFCKAEEG", 2.7),
    ("PS1116 (designed binder, Variant of PS621) MHSKFSHAGRICGAKFKVGEPIYRCKECSFDDTCVLCVNCFNPKDHTYHHVYTTICTEFNNGICDCGDKEAWNHTLFCKAEEG", 1.2),
    ("PS621 (other, UBR protein (UBR-box) parent of PS1101-PS1122) MHSKFSHAGRICGAKFKVGEPIYRCKECSFDDTCVLCVNCFNPKDHTGHHVYTTICTEFNNGICDCGDKEAWNHTLFCKAEEG", 5.2),
    ("PS1101 (designed binder, Variant of PS621) MHSKFSHAGRICGAKFKVREPIYRCKECSFDDTCVLCVNCFNPKDHTGHHVYTTICTEFNNGICDCGDKEAWNHTLFCKAEEG", 1.4),
    ("PS1121 (designed binder, Variant of PS621) MHSKFSHAGRICGAKFKVGEPIYRCKECSFDDTCVLCVNCFNPKDHKGHHVYTTICTEFNNGICDCGDKEAWNHTLFCKAEEG", 5.4),
    ("PS1120 (designed binder, Variant of PS621) MHSKFSHAGRICGAKFKVGEPIYRCKECSFDDTCVLCVNCFNPKDHTGHHVYTKICTEFNNGICDCGDKEAWNHTLFCKAEEG", 5.5),
    ("PS1109 (designed binder, Variant of PS621) MHSKFSHAGRICGAKFKVGEPIYRCKECSFDDTCVLCVNCFNPKDHTGHHVYTTICTEFNKGICDCGDKEAWNHTLFCKAEEG", 4.7),
    ("PS1103 (designed binder, Variant of PS621) MHSKFSHAGRICGAKFKVGEPIYRCKECSFDYTCVLCVNCFNPKDHTGHHVYTTICTEFNNGICDCGDKEAWNHTLFCKAEEG", 2.9),
]
